For each entry below, report its yeast fitness value.
B1: tRNA (parent)
chain: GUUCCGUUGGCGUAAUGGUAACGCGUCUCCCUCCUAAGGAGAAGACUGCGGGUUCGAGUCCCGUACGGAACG

Variants of: B1
ASSAY OVERVIEW: yeast fitness relative to wild type (ratio to wild type); higher = fitter; tRNA-Arg(CCU), competitive growth, 37 C, YPD
Fewer inactive variants are shown than the library holds.

Worked set:
G6A A21C U47A G68A	≤ 0.5
C5A G41A C55A	≤ 0.5
C46U G48C	0.951
C29U A36C G56A	≤ 0.5
A21U A43G	0.752

For each of the items listed, what is its yeast fitness?
1. A43C G56A
2. C27U C29U C55A G58A
3. G10C C31G
4. U26C A36U
5. C11U A20U C24U C30U C33A U54A C61G
6. U19A C34G A57U
7. A14G G23U G58A

[0.949, "≤ 0.5", 0.631, 0.608, "≤ 0.5", "≤ 0.5", "≤ 0.5"]

Given the variant C4G A15G A20G G23A C34G G67A , what is its reported yeast fitness?
≤ 0.5
